Taken from BigSolDB 2.1.

conditions: in n-butanol, 308.15 K
endpoint: solubility (mole fraction)

Which solubility (mole fraction) reading was recorded for the compound CC(C)(c1ccc(O)cc1)c1ccc(O)cc1 ? 0.163

###

details: in 1,4-dioxane, 313.15 K
endpoint: solubility (mole fraction)
I only need the number, thanks.

Which solubility (mole fraction) reading was recorded for the compound CC(C)(c1ccc(O)cc1)c1ccc(O)cc1 ? 0.307

###

settings: in n-propanol, 288.15 K
endpoint: solubility (mole fraction)
I only need the number, thanks.

Which solubility (mole fraction) reading was recorded for the compound CC(C)(c1ccc(O)cc1)c1ccc(O)cc1 ? 0.195

###

conditions: in methanol, 298.15 K
endpoint: solubility (mole fraction)
I only need the number, thanks.

Which solubility (mole fraction) reading was recorded for the molecule CC(C)(c1ccc(O)cc1)c1ccc(O)cc1 ? 0.207
